target-or-test-system: CDK2 complexed with cyclin A (Homo sapiens)
procedure-details: Cyclin dependent kinase activity assay, phosphorylation of synthetic peptide PKTPKKAKKLRRR
cond: 0.1 mM ATP, read-out: CDK 2 Activity*
pIC50: −log10 of the molar value. Where a name gives a salt, the structure may show the parent alone.
readout-label: pIC50

Please review the entries below; each comes with its answer.
| compound | pIC50 |
| --- | --- |
| NC(=O)N/N=C/c1c(O)ccc2ccccc12 [Example 41, hydrochloride] | > 6.30 |
| Nc1nccc(-c2cc(-c3ccc[nH]3)ccc2O)n1 | > 6.30 |
| Nc1nccc(-c2cc(-c3cccnc3)ccc2O)n1 | < 5.30 |
| NC(=O)N/N=C/c1cc(-c2ccccc2)ccc1O [Example 5, hydrochloride] | 5.70 to 6.30 |

Input line: For the compound `NC(=S)N/N=C/c1cc(-c2cccc(CO)c2)ccc1O` , give its measured pIC50 value.
Output line: < 5.30

Input line: For the compound `Nc1nccc(-c2cc(-c3ccc(O)cc3)ccc2O)n1` , give its measured pIC50 value.
Output line: > 6.30

Input line: For the compound `COc1ccc(-c2ccc(O)c(/C=N/NC(N)=S)c2)cc1F` , give its measured pIC50 value.
Output line: 5.30 to 5.70

Input line: For the compound `NC(=S)N/N=C/c1cc(-c2cccs2)ccc1O` , give its measured pIC50 value.
Output line: > 6.30

Input line: For the compound `Nc1nc(-c2cc(-c3ccc(O)cc3)ccc2O)cc(-c2ccccc2CO)n1` , give its measured pIC50 value.
Output line: > 6.30

###

target-or-test-system: CDK2 complexed with cyclin A (Homo sapiens, UniProt P24941)
procedure-details: Cyclin dependent kinase activity assay, phosphorylation of synthetic peptide PKTPKKAKKLRRR
cond: 0.1 mM ATP, read-out: CDK 2 Activity*
pIC50: −log10 of the molar value.
Catalogue of molecules with associated pIC50

Please review the entries below; each comes with its answer.
| molecule | pIC50 |
| --- | --- |
| Nc1nc(-c2ccc(CO)cc2)cc(-c2cc(-c3ccc(O)cc3)ccc2O)n1 [Example 85] | > 6.30 |
| N#Cc1cccc(-c2ccc(O)c(/C=N/NC(N)=S)c2)c1 [Example 7] | < 5.30 |
| Nc1nc(-c2cc(-c3ccc(O)cc3)ccc2O)cc(N2CCC[C@@H]2CO)n1 [Example 80] | > 6.30 |

// below: pIC50 requested for another molecule
Input line: For the molecule NC(=S)N/N=C/c1cc(-c2ccc(O)cc2)ccc1O [Example 21] , give its measured pIC50 value.
Output line: > 6.30

###

Catalogue of molecules with associated IC50
target-or-test-system: CDK5 complexed with p25 (Homo sapiens, UniProt Q00535)
Sequence (Q00535 whole entry): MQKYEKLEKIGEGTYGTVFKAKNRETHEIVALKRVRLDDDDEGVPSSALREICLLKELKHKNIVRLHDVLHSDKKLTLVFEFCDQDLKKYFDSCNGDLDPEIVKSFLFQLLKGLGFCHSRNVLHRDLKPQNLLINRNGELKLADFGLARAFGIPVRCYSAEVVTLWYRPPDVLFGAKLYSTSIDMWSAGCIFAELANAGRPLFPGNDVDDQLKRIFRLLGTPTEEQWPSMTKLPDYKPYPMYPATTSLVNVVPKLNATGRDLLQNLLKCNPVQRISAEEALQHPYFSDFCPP
Sequence (Q15078 99-307 partner limits assumed): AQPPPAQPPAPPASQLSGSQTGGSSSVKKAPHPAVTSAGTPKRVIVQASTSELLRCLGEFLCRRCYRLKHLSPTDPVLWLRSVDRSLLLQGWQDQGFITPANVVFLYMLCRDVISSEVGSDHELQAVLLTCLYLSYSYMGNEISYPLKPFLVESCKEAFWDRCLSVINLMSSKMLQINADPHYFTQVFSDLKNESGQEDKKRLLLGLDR
procedure-details: Cyclin dependent kinase activity assay, phosphorylation of synthetic peptide PKTPKKAKKLRRR
Type: biochemical
cond: CDK5 complexed with p25, 0.1 mM ATP; read-out: CDK 5 Activity*
Counter-ions that a name gives are not always drawn.

Please review the entries below; each comes with its answer.
| molecule | IC50 |
| --- | --- |
| NC(=O)N/N=C/c1cc(-c2ccc(O)cc2)c(O)cc1O [Example 29, hydrochloride] | > 5000 nM |
| Nc1nc(N[C@@H](CO)Cc2ccccc2)cc(-c2cc(-c3ccc(O)cc3)ccc2O)n1 | < 500 nM |
| Nc1nc(-c2cccc(CO)c2)cc(-c2cc(-c3ccc(O)cc3)ccc2O)n1 | < 500 nM |

Input line: For the molecule `COC(=O)c1cccc(-c2ccc(O)c(/C=N/NC(N)=S)c2)c1` , give its measured IC50 value.
Output line: 500 to 2000 nM

Input line: For the molecule `NC(=S)N/N=C/c1c(O)ccc2ccccc12` , give its measured IC50 value.
Output line: < 500 nM

Input line: For the molecule `NC(=S)N/N=C/c1cc(-c2ccc3[nH]ccc3c2)ccc1O` , give its measured IC50 value.
Output line: < 500 nM

Input line: For the molecule `Nc1nccc(-c2cc(-c3ccc(O)cc3)ccc2O)n1` , give its measured IC50 value.
Output line: < 500 nM

Input line: For the molecule `Nc1nc(N)nc(-c2cc(-c3ccc(O)cc3)ccc2O)n1` , give its measured IC50 value.
Output line: < 500 nM
